Hey, just so you know, these numbers are from ChEMBL document CHEMBL3352604.

- protocol.text: Solubility in 0.01 N HCl solution in water
- Format: physicochemical
measure.name: log10(solubility) (log10 of the value in µg/mL)

>>> df
                                    compound       measure_name  measured_value
 0  COCCCOc1ccnc(C2NC(=S)NC3=C2C(=O)c2ccccc23)c1 (configuration not stated)  log10(solubility)            2.70
 1  COCCCOc1cccc(C2NC(=S)NC3=C2C(=O)c2ccccc23)n1 (configuration not stated)  log10(solubility)            1.23
 2  COCCCOc1cc(C2NC(=S)NC3=C2C(=O)c2ccccc23)ccn1 (configuration not stated)  log10(solubility)            1.34
 3  COCCCOc1cncc(C2NC(=S)NC3=C2C(=O)c2ccccc23)c1 (configuration not stated)  log10(solubility)            2.08
 4  COCCCOc1cccc([C@H]2NC(=S)Nc3c2oc2ncccc32)c1  log10(solubility)            1.45
 5  O=C1C2=C(NC(=S)NC2c2cccc(OCc3ccccn3)c2)c2ccccc21 (configuration not stated)  log10(solubility)            0.00
 6  COCCCOc1cccc(C2NC(=S)Nc3c2oc2c(F)cccc32)c1 (configuration not stated)  log10(solubility)            1.15
 7  COCCCOc1cccc([C@H]2NC(=S)NC3=C2C(=O)c2ccccc23)c1  log10(solubility)            0.70
 8  S=C1Nc2c(oc3ncccc23)C(c2cccc(OCc3cccnc3)c2)N1 (configuration not stated)  log10(solubility)            2.30
 9  COCCCOc1cccc([C@H]2NC(=S)Nc3c2oc2ccccc32)c1  log10(solubility)            0.00
10  O=C1C2=C(NC(=S)NC2c2cccc(OCc3cccnc3)c2)c2ccccc21 (configuration not stated)  log10(solubility)            2.15
11  COCCCOc1cccc(C2NC(=S)NC3=C2C(=O)c2ccccc23)c1 (racemic)  log10(solubility)            0.00
